# Test system: GB4
# procedure details: qHTS profiling for inhibitors of Plasmodium falciparum proliferation (AID 504749); also: nearly all actives have a fitted effect of over 60% in size
# measurement parameters: P. falciparum in erythrocytes, SYBR Green DNA, 72 h; series mostly up to 28.7 µM
# Protocol: NIH National Institute of Allergy and Infectious Diseases [NIAID] NIH Chemical Genomics Center [NCGC] […] Because mature erythrocytes lack DNA, only Plasmodium-derived DNA is detected. NCGC Assay Protocol Summary: The SYBR Green viability assay was adapted from a method described previously (Plouffe et al., 2008). […] The following morning, fluorescence intensity at 485(14) nm excitation and 535(25) nm emission wavelengths was measured on an EnVision (Perkin Elmer) plate reader. […]
Inconclusive results are not listed. Active and inactive are the calls of the source. Calls follow the shape of the dose curve; as a rule, active = well fitted inhibition curve with a large enough effect; inconclusive = small, poorly fitted or top-dose-only effect; inactive = flat fitted curve, though single readings scatter. Where a SMILES comes first, the peptide text is derived from it. Bridges are numbered along the chain shown (N, C = ends). [ ]: non-standard residue; d: D form. hArg = N=C(N)NCCCC[C@H](N)C(=O)O; Mpa = O=C(O)CCS
Possible outcomes: active, inactive

[
  {
    "compound": "Cc1c(C)c2c(c(C)c1OC(=O)c1cccnc1)CC[C@@](C)(CCC[C@H](C)CCC[C@H](C)CCCC(C)C)O2",
    "assigned label": "inactive"
  },
  {
    "compound": "Cc1ccsc1C(=CCCN1CCC[C@@H](C(=O)O)C1)c1sccc1C",
    "assigned label": "inactive"
  },
  {
    "compound": "Cn1c([N+](=O)[O-])cnc1COC(N)=O",
    "assigned label": "inactive"
  },
  {
    "compound": "COc1ccc(Cc2cnc(N)nc2N)cc1OC",
    "assigned label": "active"
  },
  {
    "compound": "NC(=O)NS(=O)(=O)c1ccc(N)cc1",
    "assigned label": "inactive"
  },
  {
    "compound": "CCN(CC)S(=O)(=O)c1ccc(C(=O)O)cc1",
    "assigned label": "inactive"
  },
  {
    "compound": "Cc1cc(C)nc(NS(=O)(=O)c2ccc(N)cc2)n1",
    "assigned label": "inactive"
  },
  {
    "compound": "CN(C/C=C/C#CC(C)(C)C)Cc1cccc2ccccc12",
    "assigned label": "inactive"
  },
  {
    "compound": "O=C(NCN1CCOCC1)c1cnccn1",
    "assigned label": "inactive"
  },
  {
    "compound": "NC(=O)[C@@H]1CSSCCC(=O)N[C@@H](CCCCN=C(N)N)C(=O)NCC(=O)N[C@@H](CC(=O)O)C(=O)N[C@@H](Cc2c[nH]c3ccccc23)C(=O)N2CCC[C@H]2C(=O)N1 ([Mpa][hArg]GDWPC-NH2; disulfide 1-7)",
    "assigned label": "inactive"
  }
]
